- STUDY TARGET: rat mGlu3 receptor (Rattus norvegicus (Rat), UniProt P31422)
- Sequence (P31422 23-879): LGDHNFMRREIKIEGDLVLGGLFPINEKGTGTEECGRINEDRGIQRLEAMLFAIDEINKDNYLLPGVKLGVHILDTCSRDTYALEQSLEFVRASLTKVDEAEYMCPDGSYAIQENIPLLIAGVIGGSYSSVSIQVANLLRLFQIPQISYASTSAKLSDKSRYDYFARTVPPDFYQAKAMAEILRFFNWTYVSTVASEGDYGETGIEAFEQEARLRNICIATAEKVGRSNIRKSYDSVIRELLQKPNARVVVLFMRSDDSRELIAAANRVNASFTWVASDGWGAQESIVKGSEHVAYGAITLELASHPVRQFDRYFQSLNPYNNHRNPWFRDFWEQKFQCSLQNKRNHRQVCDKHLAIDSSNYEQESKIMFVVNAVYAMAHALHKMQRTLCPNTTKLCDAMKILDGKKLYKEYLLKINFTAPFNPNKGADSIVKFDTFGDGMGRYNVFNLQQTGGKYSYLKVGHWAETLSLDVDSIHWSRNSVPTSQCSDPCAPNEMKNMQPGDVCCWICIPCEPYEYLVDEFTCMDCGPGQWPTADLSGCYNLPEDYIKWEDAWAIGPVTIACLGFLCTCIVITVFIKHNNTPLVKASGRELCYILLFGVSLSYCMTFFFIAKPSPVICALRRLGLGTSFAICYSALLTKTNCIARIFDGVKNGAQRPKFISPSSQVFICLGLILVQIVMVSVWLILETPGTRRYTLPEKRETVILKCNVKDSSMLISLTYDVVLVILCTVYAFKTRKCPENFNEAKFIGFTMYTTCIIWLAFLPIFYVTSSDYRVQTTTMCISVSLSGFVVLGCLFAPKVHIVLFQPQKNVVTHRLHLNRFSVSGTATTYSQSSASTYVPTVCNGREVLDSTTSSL
- PROCEDURE DETAILS: mGlu3 in vitro GIRK thallium flux assay
- Format: cell-based
- CONDITIONS USED: NAM; 2.5 min compound incubation; EC80 glutamate; HEK-293 GIRK cells
- Experimental: All cell culture reagents were purchased from Invitrogen Corp. (Carlsbad, Calif.) unless otherwise noted. Compound activity at the group II (mGlu2 and mGlu3) mGlus was assessed using thallium flux through GIRK channels. […] Cell plates and compound plates were loaded onto a kinetic imaging plate reader (FDSS 6000 or 7000; Hamamatsu Corporation, Bridgewater, N.J.). […] Data were analyzed using Excel (Microsoft Corp, Redmond, Wash.). […]
Below, each entry is listed alongside its reported EC50.
The reply should contain only the number, in µM.

Entry "O=C1CC(c2ccnc(-c3ccccc3F)c2)=Nc2ccc(C(F)(F)F)cc2N1" , EC50 reported as 0.75

Entry "O=C(O)c1cccc(-c2cccc(-c3nsc(-c4ccccc4)n3)c2)c1" , EC50 reported as 2.28

Entry "O=C(O)c1ccc(-c2cccc(-c3nc(-c4ccccc4)n(-c4ccccc4)n3)c2)cc1" , EC50 reported as 5.3

Entry "CSc1ccc(-c2cc(C(F)(F)F)nc(-c3cccc(-c4ccc(F)c(C(=O)O)c4)c3)n2)cc1" , EC50 reported as 4.54

Entry "O=C(O)c1cccc(-c2cccc(-c3nc(-c4ccccc4)n(Cc4ccccc4)n3)c2)c1" , EC50 reported as 3.9

Entry "O=C(O)c1ccc(-c2cccc(-c3nc(-c4ccc(C(F)(F)F)nc4)cc(C(F)(F)F)n3)c2)cc1Cl" , EC50 reported as 6.52

Entry "O=C(O)c1cc(-c2cccc(-c3nc(-c4ccccc4F)cc(C(F)(F)F)n3)c2)ccc1F" , EC50 reported as 2.21
